Quick reference for MIC among some compounds
- Tested on: Candida albicans 7N
- Type: cell-based
- assay_context: 7N
- Excerpt: The microbicidal spectrum of iturin A, which is the active ingredient in the antifungal agent for profound mycosis of the present invention, may be obtained, for example, from the minimum growth inhibiting concentration (MIC) of iturin A to various fungi such as clinically-isolated strains, animal-infected fungi and others to be obtained on the basis of the method as designated by Japan Chemotherapy Association. […]
*1 amine or outer side, *2 acyl side, *3 side chain or, on linkers, in order; H or OH if unused. Where a SMILES comes first, the peptide text is derived from it. [ ]: non-standard residue; d: D form. ξ: configuration not given here. ξβ3hGly(tridecyl) = CCCCCCCCCCCCCC(CC(=O)[*:2])N[*:1]; ξβ3hGly(undecyl) = CCCCCCCCCCCC(CC(=O)[*:2])N[*:1]; X6 = CCC(C)CCCCCCCCCCC(CC(=O)[*:2])N[*:1]; X4 = CC(C)CCCCCCCCCCC(CC(=O)[*:2])N[*:1]; X3 = CCC(C)CCCCCCCCC(CC(=O)[*:2])N[*:1]; X5 = CCCCCCCCCCCCC(CC(=O)[*:2])N[*:1]
Could you write the number and then its unit?

Use these answered entries as a reference point.
INSERT INTO results (compound, measurement_type, result) VALUES
  ('CCC(C)CCCCCCCCCCC1CC(=O)N[C@@H](CC(N)=O)C(=O)N[C@H](Cc2ccc(O)cc2)C(=O)N[C@H](CC(N)=O)C(=O)N[C@@H](CCC(N)=O)C(=O)N2CCC[C@H]2C(=O)N[C@H](CC(N)=O)C(=O)N[C@@H](CO)C(=O)N1 (stereo partly drawn) [Iturin A8, iturin A8] (cyclo(N[dY][dN]QP[dN]S[X6]))', 'MIC', '12.5 µg/mL'),
  ('CCCCCCCCCCCCCC1CC(=O)N[C@@H](CC(N)=O)C(=O)N[C@H](Cc2ccc(O)cc2)C(=O)N[C@H](CC(N)=O)C(=O)N[C@@H](CCC(N)=O)C(=O)N2CCC[C@H]2C(=O)N[C@H](CC(N)=O)C(=O)N[C@@H](CO)C(=O)N1 (stereo partly drawn) [Iturin A7, iturin A7] (cyclo(N[dY][dN]QP[dN]S[ξβ3hGly(tridecyl)]))', 'MIC', '6.25 µg/mL'),
  ('CCCCCCCCCCCCC1CC(=O)N[C@@H](CC(N)=O)C(=O)N[C@H](Cc2ccc(O)cc2)C(=O)N[C@H](CC(N)=O)C(=O)N[C@@H](CCC(N)=O)C(=O)N2CCC[C@H]2C(=O)N[C@H](CC(N)=O)C(=O)N[C@@H](CO)C(=O)N1 (stereo partly drawn) [Iturin A5, iturin A5] (cyclo(N[dY][dN]QP[dN]S[X5]))', 'MIC', '25 µg/mL'),
  ('CCCCCCCCCCCC1CC(=O)N[C@@H](CC(N)=O)C(=O)N[C@H](Cc2ccc(O)cc2)C(=O)N[C@H](CC(N)=O)C(=O)N[C@@H](CCC(N)=O)C(=O)N2CCC[C@H]2C(=O)N[C@H](CC(N)=O)C(=O)N[C@@H](CO)C(=O)N1 (stereo partly drawn) [Iturin A2, iturin A2] (cyclo(N[dY][dN]QP[dN]S[ξβ3hGly(undecyl)]))', 'MIC', '50 µg/mL'),
  ('CCC(C)CCCCCCCCC1CC(=O)N[C@@H](CC(N)=O)C(=O)N[C@H](Cc2ccc(O)cc2)C(=O)N[C@H](CC(N)=O)C(=O)N[C@@H](CCC(N)=O)C(=O)N2CCC[C@H]2C(=O)N[C@H](CC(N)=O)C(=O)N[C@@H](CO)C(=O)N1 (stereo partly drawn) [Iturin A3, iturin A3] (cyclo(N[dY][dN]QP[dN]S[X3]))', 'MIC', '50 µg/mL');

// moving on: another record for MIC
Incoming: Endpoint output: MIC of CC(C)CCCCCCCCCCC1CC(=O)N[C@@H](CC(N)=O)C(=O)N[C@H](Cc2ccc(O)cc2)C(=O)N[C@H](CC(N)=O)C(=O)N[C@@H](CCC(N)=O)C(=O)N2CCC[C@H]2C(=O)N[C@H](CC(N)=O)C(=O)N[C@@H](CO)C(=O)N1 (stereo partly drawn) [Iturin A6, iturin A6] (cyclo(N[dY][dN]QP[dN]S[X4])) . Value?
Outgoing: 12.5 µg/mL
